- study.system: Peroxisome proliferator-activated receptor gamma (Homo sapiens) + Nuclear receptor coactivator 3 (Homo sapiens) (UniProt P37231+Q9Y6Q9)
- Sequence (P37231 whole entry, looked up): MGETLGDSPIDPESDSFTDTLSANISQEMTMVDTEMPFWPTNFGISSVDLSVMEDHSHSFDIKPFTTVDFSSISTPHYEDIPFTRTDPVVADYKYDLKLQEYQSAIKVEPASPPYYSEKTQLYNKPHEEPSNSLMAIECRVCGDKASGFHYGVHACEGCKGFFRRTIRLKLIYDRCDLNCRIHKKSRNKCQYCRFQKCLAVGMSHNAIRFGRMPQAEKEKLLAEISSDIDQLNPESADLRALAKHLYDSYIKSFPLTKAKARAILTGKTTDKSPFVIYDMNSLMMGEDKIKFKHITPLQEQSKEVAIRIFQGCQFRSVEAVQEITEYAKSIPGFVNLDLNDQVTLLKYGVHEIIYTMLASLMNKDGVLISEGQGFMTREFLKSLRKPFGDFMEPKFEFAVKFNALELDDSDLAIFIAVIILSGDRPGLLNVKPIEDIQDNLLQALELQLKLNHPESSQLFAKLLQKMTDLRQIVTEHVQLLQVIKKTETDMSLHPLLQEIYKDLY
- Sequence (Q9Y6Q9 whole entry, looked up): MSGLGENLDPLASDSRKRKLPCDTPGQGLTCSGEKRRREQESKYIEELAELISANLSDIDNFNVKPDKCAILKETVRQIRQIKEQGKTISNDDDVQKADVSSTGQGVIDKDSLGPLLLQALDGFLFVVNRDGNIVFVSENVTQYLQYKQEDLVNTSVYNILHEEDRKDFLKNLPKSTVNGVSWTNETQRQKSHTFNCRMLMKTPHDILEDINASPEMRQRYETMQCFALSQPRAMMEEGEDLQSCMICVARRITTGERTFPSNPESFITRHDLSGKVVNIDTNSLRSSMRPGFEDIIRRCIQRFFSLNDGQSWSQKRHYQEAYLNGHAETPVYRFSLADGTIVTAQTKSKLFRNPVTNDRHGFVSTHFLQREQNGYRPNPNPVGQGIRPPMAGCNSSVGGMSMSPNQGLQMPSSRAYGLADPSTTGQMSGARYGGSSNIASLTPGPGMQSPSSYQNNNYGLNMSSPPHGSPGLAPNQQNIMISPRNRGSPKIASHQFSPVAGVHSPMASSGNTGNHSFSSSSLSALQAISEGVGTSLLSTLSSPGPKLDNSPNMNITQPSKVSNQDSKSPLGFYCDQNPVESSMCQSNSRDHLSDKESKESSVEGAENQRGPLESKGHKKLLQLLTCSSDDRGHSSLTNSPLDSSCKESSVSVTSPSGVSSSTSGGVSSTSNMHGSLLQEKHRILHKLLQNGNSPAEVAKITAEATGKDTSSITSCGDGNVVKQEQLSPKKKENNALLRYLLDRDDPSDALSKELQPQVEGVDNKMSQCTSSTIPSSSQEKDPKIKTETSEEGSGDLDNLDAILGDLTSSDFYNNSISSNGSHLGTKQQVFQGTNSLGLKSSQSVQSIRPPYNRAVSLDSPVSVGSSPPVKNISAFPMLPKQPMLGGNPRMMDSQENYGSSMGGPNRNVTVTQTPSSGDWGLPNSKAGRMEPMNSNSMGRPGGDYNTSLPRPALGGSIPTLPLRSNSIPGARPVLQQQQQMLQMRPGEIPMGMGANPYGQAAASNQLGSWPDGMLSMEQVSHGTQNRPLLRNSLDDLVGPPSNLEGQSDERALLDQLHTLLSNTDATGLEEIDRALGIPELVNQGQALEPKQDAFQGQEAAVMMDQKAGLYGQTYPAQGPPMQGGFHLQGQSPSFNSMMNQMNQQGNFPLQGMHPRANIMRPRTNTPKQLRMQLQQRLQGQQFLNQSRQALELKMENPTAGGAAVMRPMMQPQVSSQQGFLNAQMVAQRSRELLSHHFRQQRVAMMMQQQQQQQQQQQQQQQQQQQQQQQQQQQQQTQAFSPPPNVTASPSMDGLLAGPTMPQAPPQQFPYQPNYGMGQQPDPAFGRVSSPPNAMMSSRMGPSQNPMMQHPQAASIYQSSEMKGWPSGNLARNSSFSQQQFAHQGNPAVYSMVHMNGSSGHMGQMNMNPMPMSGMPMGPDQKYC
- protocol: PPARgamma-driven SRC-3 coactivator recruitment agonists, confirmation, biochemical (AID 1301);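 note: 0% = vehicle wells and 100% = reference agonist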
- reported.conditions: biochemical PPARgamma-SRC-3 coactivator recruitment, agonist mode; at 8 µM
Some of the results follow. Active and inactive are the calls of the source. Cut-off read from the data, not from the text of the source: active = activation above about 24%; inactive = the rest.
Response enum: 1 (yes) (active), 0 (no) (inactive)

[[record]]
compound = "CSc1c(SCc2ccccc2)cnn(Cc2ccccc2)c1=O"
cat = "1 (yes)"

[[record]]
compound = "O=C(O)Cc1sc(-c2ccccc2)nc1-c1cccs1"
cat = "1 (yes)"

[[record]]
compound = "CN(C)c1ccc(N/C=C/C(=O)C(F)(F)F)cc1"
cat = "0 (no)"

[[record]]
compound = "Cc1cc(C)c2c(c1)cc(C)c1nnc(SCC(=O)Nc3cc(C)on3)n12"
cat = "0 (no)"


Please state the recorded outcome for this compound: Cc1cc(C)c2cc(CN(Cc3cccs3)Cc3nnnn3CC3CCCO3)c(=O)[nH]c2c1 (centres undefined)
0 (no)

Field: outcome | Entry: CCn1c(=O)cc(SCC(=O)NCc2ccc3c(c2)OCO3)c2ccccc21
0 (no)

Lab log entry: CCN(/N=C/c1ccc(N(C)C)cc1)c1nc2ccccc2[nH]1 — outcome as called in the assay?
0 (no)

Dear all, I need the recorded test outcome for COC(=O)c1[nH]c2ccc(Br)cc2c1NC(=O)Oc1ccccc1 , thank you.
0 (no)

For CCN(CCCNC(=O)CSc1cc(=O)n(C)c2cc(Cl)ccc12)Cc1ccccc1 , which call appears in the assay record?
0 (no)

###

- study.system: Steroidogenic factor 1 (Homo sapiens) (UniProt Q13285)
- Sequence (Q13285 whole entry, looked up): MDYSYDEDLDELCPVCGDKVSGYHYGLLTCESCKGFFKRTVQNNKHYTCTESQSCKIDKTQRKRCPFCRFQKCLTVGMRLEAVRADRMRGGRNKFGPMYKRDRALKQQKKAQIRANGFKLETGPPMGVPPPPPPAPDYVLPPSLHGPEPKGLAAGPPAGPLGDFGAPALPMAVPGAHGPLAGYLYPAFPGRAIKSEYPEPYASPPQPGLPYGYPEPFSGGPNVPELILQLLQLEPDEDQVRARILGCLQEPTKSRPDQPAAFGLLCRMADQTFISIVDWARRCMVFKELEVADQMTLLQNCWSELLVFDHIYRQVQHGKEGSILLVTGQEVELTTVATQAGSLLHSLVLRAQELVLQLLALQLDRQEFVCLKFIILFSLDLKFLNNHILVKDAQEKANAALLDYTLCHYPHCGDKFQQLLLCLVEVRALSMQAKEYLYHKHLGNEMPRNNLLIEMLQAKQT
- protocol: SF1 (NR5A1) inverse agonists, counter-screen for LRH-1 inverse agonist project, cell-based, luminescence, high throughput (AID 651614);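 note: cells cotransfected with StAR promoter reporter and SF1 expression vector; 0% = vehicle on cells with receptor and 100% = vehicle on cells lacking receptor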
- reported.conditions: cell-based SF1 luciferase reporter, at 3.6 µM
Active and inactive are the calls of the source. Cut-off read from the data, not from the text of the source: active = inhibition above about 44%; inactive = the rest.
Respond using exactly one of the listed classes: active, inactive

Examples from the recorded data:
[[record]]
molecule = "O=C(Nc1cc(Cl)ccc1-n1cncn1)c1ccc([N+](=O)[O-])o1"
study_system = "Steroidogenic factor 1 (Homo sapiens) (UniProt Q13285)"
cat = "active"

[[record]]
molecule = "Cc1ccc(S(=O)(=O)/C(=C/Cl)NC(=O)c2ccccc2)cc1"
study_system = "Steroidogenic factor 1 (Homo sapiens) (UniProt Q13285)"
cat = "active"

[[record]]
molecule = "Cc1ccc(-n2c(-c3ccccc3)c[n+]3c2CCc2ccccc2-3)c(C)c1"
study_system = "Steroidogenic factor 1 (Homo sapiens) (UniProt Q13285)"
cat = "active"

[[record]]
molecule = "COc1ccc2c(c1)CCN(C(=O)CCl)C2C1C(=O)CCCC1=O (stereo not given)"
study_system = "Steroidogenic factor 1 (Homo sapiens) (UniProt Q13285)"
cat = "active"

[[record]]
molecule = "COc1cc(/C=N/NC(N)=S)ccc1OCC(=O)Nc1ccc(C)cc1"
study_system = "Steroidogenic factor 1 (Homo sapiens) (UniProt Q13285)"
cat = "active"

[[record]]
molecule = "CCN1C(=O)c2cccc3c(N)ccc1c23"
study_system = "Steroidogenic factor 1 (Homo sapiens) (UniProt Q13285)"
cat = "active"

[[record]]
molecule = "CC(C)CCCCCCCCCCCCC(=O)NCC(=O)NC1C(C)OC(Nc2ncnc3nc[nH]c23)C(O)C1O (stereo not given)"
study_system = "Steroidogenic factor 1 (Homo sapiens) (UniProt Q13285)"
cat = "active"

[[record]]
molecule = "Cc1ccc2ccc3ccc(C)nc3c2n1"
study_system = "Steroidogenic factor 1 (Homo sapiens) (UniProt Q13285)"
cat = "active"

[[record]]
molecule = "Cc1ccc2[nH]cc(/C=C/c3cc[n+](C)cc3)c2c1"
study_system = "Steroidogenic factor 1 (Homo sapiens) (UniProt Q13285)"
cat = "active"

[[record]]
molecule = "O=C(NCc1cccnc1)/C(=C/c1ccc(-c2ccc(Cl)cc2)o1)S(=O)(=O)c1ccccc1"
study_system = "Steroidogenic factor 1 (Homo sapiens) (UniProt Q13285)"
cat = "active"


Each molecule tested received a call. Report the one for CC(=O)c1cccc(NC(=O)c2ccc([N+](=O)[O-])o2)c1 .
active

Per the records of this test, what outcome belongs to O=C(Nc1ccc(CSc2ccccc2)cc1)c1ccc(CN2CCOCC2)cc1 ?
active

What outcome does the record of this test show for COc1ccc(NC(=O)c2sc(=O)n(Cc3ccc(F)c(Cl)c3)c2C)cc1OC ?
active

Hi, sorry to bother you, what did the test record for C[n+]1c2n(c3ccccc31)N=C(c1cc(C(C)(C)C)c(O)c(C(C)(C)C)c1)CS2 ?
active

Record request — test call for CC(C)(C)c1ccc(Oc2ccc(NC(=O)C3CC=CCC3C(=O)O)cc2)cc1 (stereo not given)
inactive

State the result this test recorded for CCN1/C(=C/c2ccc3ccccc3[n+]2CC)C=Cc2ccccc21 .
active

Entry CCCCNC(=O)COC(=O)c1c2c(nc3ccccc13)/C(=C\c1cccs1)CC2 : call = ?
inactive

Look up the recorded call for COc1ccc(OC)c(C2C3=C(COC3=O)Nc3cc4c(cc32)OCO4)c1 (stereo not given) in this test.
inactive
